Reference for the values: PubChem BioAssay AID652054

study target: D(3) dopamine receptor (Homo sapiens) (UniProt P35462)
Sequence (P35462 whole entry, looked up): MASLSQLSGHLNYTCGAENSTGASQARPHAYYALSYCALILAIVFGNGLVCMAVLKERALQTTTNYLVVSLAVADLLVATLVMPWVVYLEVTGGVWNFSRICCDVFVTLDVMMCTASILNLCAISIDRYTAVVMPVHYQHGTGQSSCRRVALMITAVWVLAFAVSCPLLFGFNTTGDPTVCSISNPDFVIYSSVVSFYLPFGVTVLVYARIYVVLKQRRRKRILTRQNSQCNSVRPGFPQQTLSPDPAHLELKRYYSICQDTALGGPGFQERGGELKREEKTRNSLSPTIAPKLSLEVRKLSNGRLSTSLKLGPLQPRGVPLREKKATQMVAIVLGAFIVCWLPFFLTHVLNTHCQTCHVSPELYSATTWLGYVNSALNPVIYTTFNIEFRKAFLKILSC
assay details: qHTS of D3 Dopamine Receptor Antagonist: qHTS; note: % is set by controls: 0 for no effect and ±100 for the full control effect
measurement context: D3R cells, DiscoveRx beta-arrestin luminescence, antagonist mode
Among all 360,000 compounds or so, about 9,100 (2.5%) were called active. Not shown: some 4% with an inconclusive outcome. Cut-off read from the data, not from the text of the source: active = max response below about -50%; inconclusive = no clear call, values can overlap the other calls; inactive = above that. What follows is part of a selection rich in actives, with near analogues and random picks from the rest.
Give your call using only these classes: yes (1) (active), no (0) (inactive)

### Prompt Status in this test for `COC(=O)c1nc(NC(=O)c2ccccc2)n[nH]1` ?
### Response no (0)

### Prompt Same question, `CCOC(=O)c1c(S(=O)(=O)Nc2ccc(CN3CCC(C)CC3)cc2)c(C)n(C)c1C` this time
### Response yes (1)

### Prompt Same question, `O=C(Cc1ccc([N+](=O)[O-])cc1)N/N=C/c1ccco1` this time
### Response no (0)

### Prompt Same question, COc1ccc(-c2ccc(CN3C(C(C)C)C(=O)N(Cc4cn(CC5CCCCC5)nn4)CCS3(=O)=O)cc2)cn1 (stereo not drawn) this time
### Response no (0)

### Prompt Same question, C=C1C(=O)[C@]23C[C@H]1CCC2[C@@]1(C)C(C[C@@H]3O)[C@](C)(C(=O)O)CC[C@@H]1O (stereo partly drawn) this time
### Response no (0)

### Prompt Same question, `O=C(NC(=O)c1ccccc1)Nc1ccccc1O` this time
### Response no (0)

### Prompt Same question, O=S1(=O)CC(N2CCC(Cc3ccccc3)CC2)CN1Cc1ccccc1 (stereo not drawn) this time
### Response no (0)

### Prompt Same question, `CCOC(=O)N1CCC(Nc2c(NCCN3CCN(c4cccc(Cl)c4)CC3)c(=O)c2=O)CC1` this time
### Response no (0)

### Prompt Same question, `O=C(Cc1csc(Nc2nc(=S)[nH]c3ccccc23)n1)NCCCN1CCN(c2cccc(Cl)c2)CC1` this time
### Response yes (1)

### Prompt Same question, CC1(C(=O)NS(=O)(=O)Cc2cccc(Cl)c2)CCN1C(=O)Cc1ccc(Cl)cc1Cl (stereo not drawn) this time
### Response no (0)

### Prompt Same question, `COc1ccc(CCNC(=O)Nc2ccc3c(c2)c(=O)n(C)n3C)cc1OC` this time
### Response no (0)

### Prompt Same question, COc1ccc(CCCNC(=O)C2Cc3c(-c4cccc(C(N)=O)c4)ccnc3O2)cc1 (stereo not drawn) this time
### Response no (0)

### Prompt Same question, `CCN1CC=C2C(C#N)=C(N)C(C#N)(C#N)[C@H](c3ccoc3)[C@H]2C1` this time
### Response no (0)

### Prompt Same question, `COc1ccc(Br)cc1/C=N/Nc1ccc(S(=O)(=O)Nc2ccccc2C(=O)O)cc1[N+](=O)[O-]` this time
### Response yes (1)

### Prompt Same question, `CCn1c(=O)cc(OCC(=O)NCCCN2CCN(c3cccc(Cl)c3)CC2)c2ccccc21` this time
### Response yes (1)

### Prompt Same question, `C[C@H]1NS(=O)(=O)c2cc(Cl)ccc2O[C@@H]1c1ccccc1` this time
### Response no (0)

### Prompt Same question, `CCOC(=O)c1c(S(=O)(=O)Nc2cccc(Cl)c2)c(C)n(C)c1C` this time
### Response no (0)

### Prompt Same question, `N#Cc1ccc(C(=O)Nc2nc(-c3cccs3)c(C(=O)C(F)(F)F)s2)cc1` this time
### Response yes (1)

### Prompt Same question, CCc1ccccc1N1C(=O)C2C3CC(=O)C(c4ccccc43)C2C1=O (stereo not drawn) this time
### Response no (0)

### Prompt Same question, CCCCn1nnnc1C1(C)CCC(=O)N1Cc1ccc(OC)c(OC)c1 (stereo not drawn) this time
### Response no (0)

### Prompt Same question, `CCN(CC(=O)Nc1c(F)cccc1F)C(=O)c1ccc(Sc2nncn2C)c([N+](=O)[O-])c1` this time
### Response no (0)

### Prompt Same question, `CCOC(=O)c1c(S(=O)(=O)NCC(=O)Nc2ccc(C)cc2)c(C)n(C)c1C` this time
### Response no (0)

### Prompt Same question, `CC(=O)Nc1ccc(Nc2c([N+](=O)[O-])cc(S(C)(=O)=O)cc2[N+](=O)[O-])cc1` this time
### Response no (0)

### Prompt Same question, `CCc1nc2ccc(C(=O)N3CCC(O)(Cc4ccccc4)CC3)cn2c1N(C)C(=O)Cc1ccccc1` this time
### Response no (0)

### Prompt Same question, `Cc1cc(-c2n[nH]c(=S)n2/N=C/C(Br)=C/c2ccccc2)n[nH]1` this time
### Response yes (1)

### Prompt Same question, CCCN1CC=C2C(C#N)=C(N)C(C#N)(C#N)C(c3cc(OC)ccc3OC)C2C1 (stereo not drawn) this time
### Response yes (1)

### Prompt Same question, `CCc1nc2c(OCCOc3ccccc3)cccn2c1N(C=O)Cc1ccc(OC)cc1` this time
### Response no (0)

### Prompt Same question, `Cc1cc(Br)cn2c(Cc3ccsc3)c(-c3ccc(C#N)cc3)nc12` this time
### Response no (0)

* * *

study target: D(3) dopamine receptor (Homo sapiens)
assay details: qHTS of D3 Dopamine Receptor Antagonist: qHTS; note: % is set by controls: 0 for no effect and ±100 for the full control effect
measurement context: D3R cells, DiscoveRx beta-arrestin luminescence, antagonist mode; hits give low values
Hit rate of the full screen: of about 360,000 compounds, about 9,100 (2.5%) were called active. Inconclusive results (about 4%) are left out. The entries come from a sample that favours actives as a whole.
endpoint: max response, negative = inhibition (%)
Give the number; % is assumed, so skip it.

### Prompt I am curious: what max response, negative = inhibition value has been reported for CC(C)C1CC2=C(C(=O)OC(C)(C)O2)C(c2ccc(F)cc2)O1 (stereo unspecified) ?
### Response -3.03

### Prompt Same question, `CCOC(=O)C1CCN(C(=O)COc2cccc3ccccc23)CC1` this time
### Response 2.44

### Prompt Same question, COc1cc(C(O)c2nc(-c3cccc(C(=O)O)c3)cs2)ccc1F (stereo unspecified) this time
### Response 5.94

### Prompt Same question, `COc1ccc(NC(=O)[C@H](NC(=O)[C@@H]2Cc3ccccc3CN2)c2ccccc2)cc1` this time
### Response -97.8

### Prompt Same question, `COc1ccc(N2CCN(Cc3nnc(-c4ccccc4)o3)CC2)cc1` this time
### Response 11.3

### Prompt Same question, `Cc1ccc(S(=O)(=O)N2CCN(S(=O)(=O)N3CCOCC3)CC2)cc1` this time
### Response -75.3

### Prompt Same question, O=C(NCC1CCC(C(=O)O)CC1)OCc1ccccc1 (stereo unspecified) this time
### Response 22

### Prompt Same question, `Cc1cn([C@H]2C[C@H](O)[C@@H](CNC(=O)[C@H](N)Cc3cccnc3)O2)c(=O)[nH]c1=O` this time
### Response 22.6

### Prompt Same question, `c1ccc(-c2cnc(CN3CCN(c4ccccc4)CC3)o2)cc1` this time
### Response -58.1

### Prompt Same question, O=C(CC1NCCNC1=O)Nc1cc(Cl)cc(Cl)c1 (stereo unspecified) this time
### Response 20.6

### Prompt Same question, `COc1ccc(OCC(=O)N2CCN(C(=O)c3cccs3)CC2)cc1` this time
### Response 5.1

### Prompt Same question, NCCCCC(C(=O)O)N(C(=O)OCc1ccccc1)C(=O)OCc1ccccc1 (stereo unspecified) this time
### Response -55.1

### Prompt Same question, `Cc1cc(Cl)ccc1-c1nc(NCCN(C)C)nc2ccsc12` this time
### Response -28.3

### Prompt Same question, `CC(=O)c1c(C)[nH]c(C(=O)NCCCN2CCCC2)c1C` this time
### Response 11.6

### Prompt Same question, `CCOc1ccc(CCNC(=O)COC(=O)c2ccc(C)c(S(=O)(=O)N3CCOCC3)c2)cc1OCC` this time
### Response -5.11

### Prompt Same question, `CCCCN(CC)CCCNC(=O)CS(=O)(=O)Cc1nc(-c2cccc(OC)c2)oc1C` this time
### Response -50.9

### Prompt Same question, `O=C1c2ccccc2C(=O)c2c1cccc2N1CCN(Cc2ccccc2)CC1` this time
### Response -83

### Prompt Same question, CN(Cc1ccccc1F)c1cc2c(c3c1ccn3C)C1CCC2O1 (stereo unspecified) this time
### Response -29.6

### Prompt Same question, `O=c1ccc2c(-c3ccccc3S(=O)(=O)O)c3ccc(O)c(O)c3oc-2c1O` this time
### Response -93.3

### Prompt Same question, `Cn1c(CCCOc2ccc(Cl)cc2Cl)n[nH]c1=S` this time
### Response 10.4

### Prompt Same question, `CN(Cc1ccccc1)C(=O)CCC1CCN(C(=O)c2ccco2)CC1` this time
### Response 13.8

### Prompt Same question, CC(C)c1cc(C(=O)N(C)C2CCCN(Cc3ccccc3F)C2)n(C)n1 (stereo unspecified) this time
### Response -9.14

### Prompt Same question, `CCN1CCN(c2nc(Nc3cccc(F)c3)nc(N)c2[N+](=O)[O-])CC1` this time
### Response -76.5

### Prompt Same question, `CC(C)[C@H](NC(=O)OCc1ccccc1)C(=O)OCc1ccccc1` this time
### Response -14.6

### Prompt Same question, CC1(C(=O)Nc2cccnc2)Cc2c(-c3ccccc3)ccnc2O1 (stereo unspecified) this time
### Response 25.1

### Prompt Same question, `CCc1c(-c2ccc(F)cc2)ncn1Cc1cccc(-c2ccccc2)c1` this time
### Response -10.3

### Prompt Same question, `C[C@H](CO)N1C[C@H](C)[C@@H](CN(C)C(=O)C2CCCCC2)OCc2cnnn2CCCC1=O` this time
### Response -18.3

### Prompt Same question, O=C(CC1NCCNC1=O)Nc1ccc(Oc2ccccc2)cc1 (stereo unspecified) this time
### Response 24.3

### Prompt Same question, Cc1ccc(C(=O)NC(C)C(c2cccs2)N2CCOCC2)cc1C (stereo unspecified) this time
### Response -24.7

### Prompt Same question, `O=S1(=O)CCN(Cc2ccccc2)CC1` this time
### Response -8.1

### Prompt Same question, CCOC(=O)[C@H]1Nc2ccc(Cl)cc2[C@@H]2[C@H]1C1CC(c3ccccc31)N2C(=O)OCc1ccccc1 (stereo partly specified) this time
### Response -1.57

### Prompt Same question, `COc1ccccc1OCCCCCCN1CCN(C)CC1` this time
### Response 0.923

### Prompt Same question, `COc1ccc(S(=O)(=O)N2CCC(C(=O)NCCC(=O)Nc3ccccc3OC)CC2)cc1` this time
### Response 23.8

### Prompt Same question, `CN1CCN(CCCCOc2cccc3ccccc23)CC1` this time
### Response -59

### Prompt Same question, `COc1ccc(-c2cc(-c3ccc(N)cc3)nc(N)c2C#N)cc1OC` this time
### Response 23.8

### Prompt Same question, COc1cccc(C(O)Cc2nc3ccccc3n2C)c1OC (stereo unspecified) this time
### Response 9.46
